test method notes: Solubility screening of anthralin in oils, surfactants and co-surfactants
Format: physicochemical
details: Tween 20, thermodynamic from solid, in Tween 20; read-out: drug solubility
measurement label: solubility at 48 h (mg/mL)

# molecule, measurement label, recorded number
data = [
    ("O=C1c2c(O)cccc2Cc2cccc(O)c21 [Anthralin]", "solubility at 48 h", 11.6),
]

----------
test method notes: Solubility screening of anthralin in oils, surfactants and co-surfactants
Assay type: physicochemical
details: Tween 80, 27 °C, thermodynamic from solid, in Tween 80, room temperature (27 ± 1 °C); read-out: drug solubility
measurement label: solubility at 48 h (mg/mL)

# substance smiles, measurement label, recorded number
records = [
    ("O=C1c2c(O)cccc2Cc2cccc(O)c21", "solubility at 48 h", 56),
]

----------
test method notes: Solubility screening of anthralin in oils, surfactants and co-surfactants
Type: physicochemical
details: oleic acid, 27 °C, oil or lipid, thermodynamic from solid, in oleic acid, room temperature (27 ± 1 °C); read-out: drug solubility

# substance smiles, solubility at 48 h, mg/mL
records = [
    ("O=C1c2c(O)cccc2Cc2cccc(O)c21", 44.2),
]

----------
test method notes: Solubility screening of anthralin in oils, surfactants and co-surfactants
Assay type: physicochemical
details: ethanol, organic solvent or mixture, thermodynamic from solid, in ethanol; read-out: drug solubility

# substance smiles, solubility at 48 h (mg/mL)
measured = [
    ("O=C1c2c(O)cccc2Cc2cccc(O)c21", 9.23),
]

----------
test method notes: Solubility screening of anthralin in oils, surfactants and co-surfactants
Assay type: physicochemical
details: Span 20, thermodynamic from solid, in Span 20; read-out: drug solubility

# substance smiles, solubility at 48 h, µg/mL
data = [
    ("O=C1c2c(O)cccc2Cc2cccc(O)c21", 4230),
]
